system: mice; assay: Acute toxicity test in mice (oral); settings: mice, oral, up to 3 g/kg
metric_name: death up to the dose of 3 g/kg body weight

{"molecule": "CCc1oc2ccc([N+](=O)[O-])cc2c1S(=O)(=O)NCC(=O)O [Compound 21]", "observed_measurement": "no death"}
{"molecule": "CCCCCOc1ccc(S(=O)(=O)NCC(=O)O)c2cc(C(C)=O)oc12 [Compound 5]", "observed_measurement": "no death"}
{"molecule": "CCCCOc1ccc(S(=O)(=O)N(C)CC(=O)O)c2cc(C(C)=O)oc12 [Compound 9]", "observed_measurement": "no death"}
{"molecule": "CCCOc1ccc(S(=O)(=O)NCC(=O)O)c2cc(C(C)=O)oc12 [Compound 3]", "observed_measurement": "no death"}
